# assayed_target: CDK4 (Homo sapiens)
# Construct: endogenous in cells
# experimental_protocol: CDK4 degradation (DC50, Dmax)
# Assay type: cell-based
measurement_kind: DC50

Prompt line: Field: DC50 (CDK4 (Homo sapiens)). Entry: Cc1nc2c(F)cc(-c3nc(Nc4ccc(CN5CCN(C(=O)C6CN(c7ccc(C(=O)NC8CCC(=O)NC8=O)cc7)C6)CC5)cn4)ncc3F)cc2n1C(C)C (stereo not drawn)
Response line: 50 to 200 nM

Prompt line: Form field: DC50 recorded for CC(=O)c1c(C)c2cnc(Nc3ccc(N4CCN(C(=O)N5CCC(CCN6CCC(c7ccc8c(c7)C(=O)N(C7CCC(=O)NC7=O)C8=O)CC6)CC5)CC4)cn3)nc2n(C2CCCC2)c1=O (stereo not drawn) with CDK4 (Homo sapiens) (enter value)
Response line: > 200 nM

Prompt line: Request - read-out DC50 | tested on CDK4 (Homo sapiens) | compound CC(=O)c1c(C)c2cnc(Nc3ccc(N4CCN(C(=O)N5CCC(N6CCC(c7ccc8c(c7)C(=O)N(C7CCC(=O)NC7=O)C8=O)CC6)CC5)CC4)cn3)nc2n(C2CCCC2)c1=O (stereo not drawn)
Response line: 50 to 200 nM

----------
# assayed_target: CDK4 (Homo sapiens)
# Construct: endogenous in cells
# experimental_protocol: CDK4 degradation (DC50, Dmax)
# Type: cell-based
measurement_kind: DC50

Prompt line: Form: Entry = Cc1nc2c(F)cc(-c3nc(Nc4ccc(CC5CCN(C6CN(c7ccc8c(c7)C(=O)N(C7CCC(=O)NC7=O)C8=O)C6)CC5)cn4)ncc3F)cc2n1C(C)C (stereo not drawn) [Compound 148] | System = CDK4 (Homo sapiens) | DC50 = ____
Response line: < 50 nM

Prompt line: API: value(readout= DC50, system= CDK4 (Homo sapiens), query= Cc1nc2c(F)cc(-c3nc(Nc4ccc(CC5CCN(CC6CN(c7ccc8c(c7)C(=O)N(C7CCC(=O)NC7=O)C8=O)C6)CC5)cn4)ncc3F)cc2n1C(C)C (stereo not drawn) [Compound 139] )
Response line: < 50 nM

Prompt line: Provide the documented DC50 with CDK4 (Homo sapiens) as the system for CC(=O)c1c(C)c2cnc(Nc3ccc(N4CCN(C5CN(c6cccc7c6C(=O)N(C6CCC(=O)NC6=O)C7=O)C5)CC4)cn3)nc2n(C2CCCC2)c1=O (stereo not drawn) [Compound 79]
Response line: 50 to 200 nM

Prompt line: // fetch CDK4 (Homo sapiens) DC50 for CC(=O)c1c(C)c2cnc(Nc3ccc(N4CCN(C5CCN(C(=O)Nc6ccc7c(c6)C(=O)N(C6CCC(=O)NC6=O)C7=O)CC5)CC4)cn3)nc2n(C2CCCC2)c1=O (stereo not drawn) [Compound 39]
Response line: 50 to 200 nM

Prompt line: Provide the documented DC50 with CDK4 (Homo sapiens) as the system for CC(=O)c1c(C)c2cnc(Nc3ccc(N4CCN(C(=O)N5CCN(c6ccc7c(c6)C(=O)N(C6CCC(=O)NC6=O)C7=O)CC5)CC4)cn3)nc2n(C2CCCC2)c1=O (stereo not drawn) [Compound 1]
Response line: 50 to 200 nM

Prompt line: What reported DC50 corresponds to CC(=O)c1c(C)c2cnc(Nc3ccc(N4CCN(CCN(C)c5cccc6c5C(=O)N(C5CCC(=O)NC5=O)C6=O)CC4)cn3)nc2n(C2CCCC2)c1=O (stereo not drawn) [Compound 61] on CDK4 (Homo sapiens)?
Response line: 50 to 200 nM

----------
# assayed_target: CDK4 (Homo sapiens, UniProt P11802)
# Construct: endogenous in cells
# Sequence (P11802 whole entry): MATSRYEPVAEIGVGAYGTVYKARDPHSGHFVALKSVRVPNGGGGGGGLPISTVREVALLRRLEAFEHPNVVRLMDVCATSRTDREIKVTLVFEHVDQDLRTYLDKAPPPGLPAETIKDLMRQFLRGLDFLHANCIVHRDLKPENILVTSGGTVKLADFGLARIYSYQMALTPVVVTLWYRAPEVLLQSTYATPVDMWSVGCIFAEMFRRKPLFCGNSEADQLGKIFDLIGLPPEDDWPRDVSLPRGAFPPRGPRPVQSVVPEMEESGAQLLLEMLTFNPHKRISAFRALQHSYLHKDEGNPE
# experimental_protocol: CDK4 degradation (DC50, Dmax)
# Type: cell-based
Hi there, I'd appreciate the recorded Dmax for every entry that follows.

Prompt line: Fill blank: measured Dmax of the molecule CC(=O)c1c(C)c2cnc(Nc3ccc(N4CCN(CCN5CCN(c6ccc7c(c6)CN(C6CCC(=O)NC6=O)C7=O)CC5)CC4)cn3)nc2n(C2CCCC2)c1=O (stereo not drawn) [Compound 68] is ____.
Response line: > 60%

Prompt line: Field request: Dmax | item: CC(=O)c1c(C)c2cnc(Nc3ccc(C4CCN(CC5CN(c6ccc(C(=O)NC7CCC(=O)NC7=O)cc6)C5)CC4)cn3)nc2n(C2CCCC2)c1=O (stereo not drawn) [Compound 127]
Response line: > 80%

Prompt line: # get_value(readout='Dmax', item= CC(=O)c1c(C)c2cnc(Nc3ccc(N4CCN(CC5CCN(C(=O)N6CCC(CN7CCN(c8ccc9c(c8)C(=O)N(C8CCC(=O)NC8=O)C9=O)CC7)CC6)CC5)CC4)cn3)nc2n(C2CCCC2)c1=O (stereo not drawn) [Compound 84] )
Response line: > 80%

Prompt line: // returns reported Dmax for input CC(=O)c1c(C)c2cnc(Nc3ccc(N4CCN(C(=O)N5CCN(c6ccc7c(c6)C(=O)N(C6CCC(=O)NC6=O)C7=O)CC5)CC4)cn3)nc2n(C2CCCC2)c1=O (stereo not drawn) [Compound 1]
Response line: > 60%

Prompt line: Give the measured Dmax of CC(=O)c1c(C)c2cnc(Nc3ccc(N4CCN(C5CCN(C(=O)N6CCC(CN7CCN(c8ccc9c(c8)C(=O)N(C8CCC(=O)NC8=O)C9=O)CC7)CC6)CC5)CC4)cn3)nc2n(C2CCCC2)c1=O (stereo not drawn) [Compound 86] .
Response line: > 60%

Prompt line: Dmax for CC(=O)c1c(C)c2cnc(Nc3ccc(N4CCN(CC5CN(c6ccc(N7CCC(=O)NC7=O)cc6)C5)CC4)cn3)nc2n(C2CCCC2)c1=O [Compound 111] ?
Response line: > 80%

Prompt line: // Dmax lookup, key: CC(=O)c1c(C)c2cnc(Nc3ccc(N4CCN(C(=O)C5CCN(c6ccc(NC7CCC(=O)NC7=O)cc6)CC5)CC4)cn3)nc2n(C2CCCC2)c1=O (stereo not drawn) [Compound 117]
Response line: > 80%

Prompt line: If you can, please state the reported Dmax value of Cc1nc2c(F)cc(-c3nc(Nc4ccc(CN5CCN(CCCNc6ccc(N7CCC(=O)NC7=O)cc6)CC5)cn4)ncc3F)cc2n1C(C)C [Compound 107] .
Response line: > 80%

Prompt line: Which Dmax reading was recorded for the molecule Cc1nc2c(F)cc(-c3nc(Nc4ccc(CC5CCN(C6CCN(c7ccc(NC8CCC(=O)NC8=O)cc7)CC6)CC5)cn4)ncc3F)cc2n1C(C)C (stereo not drawn) [Compound 172] ?
Response line: > 80%

Prompt line: Field request: Dmax | item: CC(=O)c1c(C)c2cnc(Nc3ccc(N4CCN(C(=O)N5CCN(CCN6CCN(c7ccc8c(c7)CN(C7CCC(=O)NC7=O)C8=O)CC6)CC5)CC4)cn3)nc2n(C2CCCC2)c1=O (stereo not drawn) [Compound 22]
Response line: > 60%

Prompt line: Find the recorded Dmax belonging to Cc1nc2c(F)cc(-c3nc(Nc4ccc(CC5CCN(CC6CN(c7ccc(C(=O)NC8CCC(=O)NC8=O)cc7)C6)CC5)cn4)ncc3F)cc2n1C(C)C (stereo not drawn) [Compound 141] and report it.
Response line: > 80%

Prompt line: Dear colleague, I am looking for the recorded Dmax of the following molecule: Cc1nc2c(F)cc(-c3nc(Nc4ccc(CN5CCN(C(=O)C6CN(c7ccc(NC8CCC(=O)NC8=O)cc7)C6)CC5)cn4)ncc3F)cc2n1C(C)C (stereo not drawn) [Compound 138]
Response line: > 60%

Prompt line: Can you look up the measured Dmax of Cc1nc2c(F)cc(-c3nc(Nc4ccc(CN5CCN(c6cccc7c6C(=O)N(C6CCC(=O)NC6=O)C7=O)CC5)cn4)ncc3F)cc2n1C(C)C (stereo not drawn) [Compound 101] for me?
Response line: > 60%

Prompt line: Data request, read-out Dmax, for CC(=O)c1c(C)c2cnc(Nc3ccc(N4CCN(C5CCN(C(=O)N6CCC(CCN7CCN(c8ccc9c(c8)C(=O)N(C8CCC(=O)NC8=O)C9=O)CC7)CC6)CC5)CC4)cn3)nc2n(C2CCCC2)c1=O (stereo not drawn) [Compound 87]
Response line: > 60%

Prompt line: For the molecule shown here, Cc1nc2c(F)cc(-c3nc(Nc4ccc(CN5CCN(CCCNc6cccc7c6C(=O)N(C6CCC(=O)NC6=O)C7=O)CC5)cn4)ncc3F)cc2n1C(C)C (stereo not drawn) [Compound 100] , give the reported Dmax.
Response line: > 80%

Prompt line: Give its Dmax value. Item: CC(=O)c1c(C)c2cnc(Nc3ccc(N4CCN(CCN5CCC(c6ccc7c(c6)CN(C6CCC(=O)NC6=O)C7=O)CC5)CC4)cn3)nc2n(C2CCCC2)c1=O (stereo not drawn) [Compound 72]
Response line: > 60%

Prompt line: Query (molecule): CC(=O)c1c(C)c2cnc(Nc3ccc(N4CCN(C(=O)N5CCC(CN6CCN(c7ccc8c(c7)C(=O)N(C7CCC(=O)NC7=O)C8=O)CC6)CC5)CC4)cn3)nc2n(C2CCCC2)c1=O (stereo not drawn) [Compound 11] ; field requested: Dmax
Response line: > 60%

Prompt line: Form field: reported Dmax of CC(=O)c1c(C)c2cnc(Nc3ccc(N4CCN(C(=O)N5CCC(CN6CCN(c7ccc8c(c7)CN(C7CCC(=O)NC7=O)C8=O)CC6)CC5)CC4)cn3)nc2n(C2CCCC2)c1=O (stereo not drawn) [Compound 12]
Response line: > 60%

Prompt line: // Dmax lookup, key: CC(=O)c1c(C)c2cnc(Nc3ccc(N4CCN(C(=O)N5CCC(CCC6CCN(c7ccc8c(c7)C(=O)N(C7CCC(=O)NC7=O)C8=O)CC6)CC5)CC4)cn3)nc2n(C2CCCC2)c1=O (stereo not drawn) [Compound 25]
Response line: > 60%

Prompt line: // Dmax lookup, key: Cc1nc2c(F)cc(-c3nc(Nc4ccc(CN5CCN(C(=O)C6CCN(c7ccc8c(c7)CN(C7CCC(=O)NC7=O)C8=O)CC6)CC5)cn4)ncc3F)cc2n1C(C)C (stereo not drawn) [Compound 154]
Response line: > 60%

Prompt line: Which Dmax is listed for CC(=O)c1c(C)c2cnc(Nc3ccc(N4CCN(C(=O)N5CCC(CCC6CCN(c7ccc8c(c7)CN(C7CCC(=O)NC7=O)C8=O)CC6)CC5)CC4)cn3)nc2n(C2CCCC2)c1=O (stereo not drawn) [Compound 26] ?
Response line: > 50%
